B1: PRKX (parent)
chain: KLLVVDRTRRLGNMKNGANDVKHH

Variants of: B1
assay details: protein stability index of a GFP-peptide fusion (GPS, HEK-293T) (PSI 1-6); higher = more stable;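 note: lentivirally expressed fusions sorted by FACS into six bins by GFP to DsRed ratio, PSI derived from sequencing read proportions per bin multiplied by bin number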
conditions: c terminus: a fixed tail appended
Label rule, in plain words: protein stability index of 3 and up is MET, under 3 is NOT MET.

These solved cases illustrate the format of a correct answer.
polymer_sequence="KLLVVDPTRRLGNMKNGANDVKHH [R7P]" discrete_label=MET
polymer_sequence="KLVVVDRTRRLGNMKNGANDVKHH [L3V]" discrete_label="NOT MET"

Given the entry KLLVVDRTRRLGNMKNGANDVKHT [H24T] , answer whether its protein stability index meets or surpasses 3.
MET

Given the entry KFLVVDRTRRLGNMKNGANDVKHH [L2F] , answer whether its protein stability index meets or surpasses 3.
MET

Given the entry KLLVVDRTRRLGNMKNGWNDVKHH [A18W] , answer whether its protein stability index meets or surpasses 3.
NOT MET
